System: mouse organs
assay-info: In vivo activity screening in mice: organ mean total flux (p/s) of luciferase activity after injection of F2 LNP pools (Table 6, FIG. 7A-7C)
experimental-conditions: Mouse 14, dose 0.5 mg/kg, luciferase mRNA
Procedure: Small rodent biodistribution studies were performed in mice (e.g., C57BL/6J, Balb-c, CD-1, etc.). […] For in detail organ distribution and activity of LNP formulations, ex vivo imaging sessions were also performed. […] Following perfusion, the organs were collected and subjected to IVIS imaging for luminescence within 10-15 minutes of D-Luciferin injection. […]
Marks after values point to notes of the source that are not given here.
Listed next: entries and their corresponding Organ Mean Total Flux Kidney.

compound	assayed-target	Organ Mean Total Flux Kidney
CCCCC/C=C\C/C=C\CCCCCCCCC(CCCCCCCC/C=C\C/C=C\CCCCC)OC(=O)CCCN(C)C [MC3, reference compound]	mouse organs	26.8 p/s (×10^6)
CCCCC/C=C\CCOC(=O)CCCCC(=O)OCC(COC(=O)CCCCC(=O)OCC/C=C\CCCCC)(COC(=O)CCC(CCCC)CCOC(=O)NCCN1CCCC1)COC(=O)CC12CC3CC(CC(C3)C1)C2 (stereo not shown)	mouse organs	5.0 p/s (×10^6)
CCCCC/C=C\CCOC(=O)CCCCC(=O)OCC(COC(=O)CCCCC(=O)OCC/C=C\CCCCC)(COC(=O)CCC(CCCCCC)OC(=O)NCCN1CCCC1)COC(=O)CC12CC3CC(CC(C3)C1)C2 (stereo not shown)	mouse organs	4.6 p/s (×10^6)
CCCCC/C=C\CCOC(=O)CCCCCC(=O)OCC(COC(=O)CCCCCC(=O)OCC/C=C\CCCCC)(COC(=O)CCCCCC(=O)OCC/C=C\CCCCC)COC(=O)CCC(CCCCCC)OC(=O)NCCN1CCCC1 (stereo not shown)	mouse organs	3.2 p/s (×10^6)
